Provenance of the data: paper PMC11822212

system: MKL-1 cells (VP-MCC); experiment: qHTS cell viability (CellTiter-Glo, 72 h; primary and follow-up small molecule screen); assay type: cell-based, human; conditions: MKL1, 72h, Log (M) -10.1077
measured_endpoint: Percent viability (%)
Give just the number in %; leave the unit off.

These recorded examples may help you get a feel for the data.
compound	units	result_number
Cc1cc(Nc2cc(N3CCN(C)CC3)nc(Sc3ccc(NC(=O)C4CC4)cc3)n2)[nH]n1 [Tozasertib, reference compound]	%	100.0
O=C(Nc1cccc(Cl)c1)Nc1ncc(CCNc2ncnc3ccsc23)s1 [SNS-314, reference compound]	%	99.7
CCn1cc(-c2ccnc3[nH]c(-c4cccc(CN(C)C)c4)cc23)c(-c2ccc(NC(=O)N(C)C)cc2)n1 [GSK-1070916A, reference compound]	%	98.1

# context switch: different compound, same Percent viability
Ask: Quick one: Percent viability for CCS(=O)(=O)c1cccc(-c2cc(C(=O)NC3CCN(C)CC3)c(C)c3[nH]c4ncc(C)cc4c23)c1 [TAK-901, reference compound] ?
Result: 62.6
